Some compounds, each annotated with its measured composite z-score.
# Tested on: Inhibin beta A chain (activin A)
# method_description: small molecules binding activin A – biochemical, small-molecule microarray, 635 nm fluorescence scan, primary screen (AID 1107);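 also: mouse activin A protein probed at 4.33 µg/mL on printed slides; score merges bound-protein fluorescence near 667 nm with spot signal-to-noise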
# run_parameters: INHBA, higher = more signal
measured_property: composite z-score

{"compound": "COc1ccc(NC(=O)O[C@H]2[C@H](OC(=O)c3cc4ccccc4[nH]3)[C@@H](OC(=O)c3cc4ccccc4[nH]3)[C@@H](OC)O[C@@H]2CO)cc1", "observed_measurement": 0.287}
{"compound": "C=C(CCCC)C(=O)CC[C@@H](OC(C)=O)c1ccc(CO)o1", "observed_measurement": 0.945}
{"compound": "COCCOC(=O)N1C(=O)[C@@]2(c3ccccc31)[C@H](C(N)=O)[C@H]1C(=O)O[C@H](c3ccccc3)[C@H](c3ccccc3)N1[C@@H]2c1ccc(O)cc1", "observed_measurement": 0.0565}
{"compound": "COCC(=C=CC[C@H](O)c1cccc(OCCO)c1)C[C@H](O)c1cc(Cl)cc(Cl)c1O", "observed_measurement": 0.712}
{"compound": "COC(=O)[C@@]1(CCC(=O)OC(C)(C)C)N=C(c2ccc(OCCCO)cc2)O[C@H]1c1ccccc1", "observed_measurement": 0.501}
{"compound": "CCCNC(=O)[C@@]1(Sc2ccc(C)cc2)CC(=O)N(Cc2ccccc2C(F)(F)F)[C@@H]1c1ccc(CO)cc1I", "observed_measurement": 1.24}
{"compound": "CCOC(=O)C1=CC[C@@H](c2ccc(C(F)(F)F)cc2)N(S(=O)(=O)c2ccc(C)cc2)[C@H]1c1ccccc1", "observed_measurement": -0.0699}
{"compound": "O=C1[C@H]2C=C(I)[C@H](C[C@@H]2OCCCCO)[C@@]12CO2", "observed_measurement": 0.873}
{"compound": "NC(=O)NCC#Cc1ccc2c(c1)[C@]1(C(=O)N2)[C@H](C(=O)O)[C@H]2C(=O)O[C@H](c3ccccc3)[C@H](c3ccccc3)N2[C@@H]1c1ccc(O)cc1", "observed_measurement": 1.25}
{"compound": "COc1ccccc1CN1C(=O)c2ccccc2[C@@H](C(=O)NCc2ccccc2)[C@@H]1c1ccc(CO)cc1", "observed_measurement": -0.134}
{"compound": "Cc1ccc(S[C@]2(C(=O)NCC(C)C)CC(=O)N(Cc3cc(C(F)(F)F)cc(C(F)(F)F)c3)[C@@H]2c2ccc(CO)cc2)cc1", "observed_measurement": 0.96}
{"compound": "COC(=O)C[C@H]1O[C@@H](CCc2ccccc2)[C@@H](C)[C@@H]1[Si](C)(C)c1ccc(OC)cc1", "observed_measurement": 0.0026}
{"compound": "C=C(CCCC)/C(=C/C[C@H](OC(C)=O)c1ccc(OCCO)cc1)c1cnc2ccccc2c1", "observed_measurement": 1.53}
{"compound": "C[N+](C)(C)CCCCCCNC(=O)[C@H]1C[C@H]2C(=O)N[C@@H](Cc3ccccc3)C(=O)N2[C@H]1c1cccc(OCCO)c1", "observed_measurement": 0.279}
{"compound": "[N-]=[N+]=NCc1ccccc1[C@@H]1OC(c2ccc(OCCCO)cc2)=N[C@]1(CCS(=O)(=O)c1ccccc1)C(=O)N1CCCCC1", "observed_measurement": 1.08}
{"compound": "CN1C(=O)C2C=CC(C(O)c3ccccc3)N(N3CCCCC3)C2C1=O (stereo unspecified)", "observed_measurement": 0.932}
{"compound": "C=C(C(=O)CC[C@H](OC(C)=O)c1ccccc1OCCO)C(C)C", "observed_measurement": -0.139}
{"compound": "COC(=O)[C@@]1(Cc2ccc(F)cc2)[C@H]2c3cc(C(=O)N(C)C)n(Cc4cc(C)n(C)n4)c3C[C@H]2CN1C(=O)c1ccccc1", "observed_measurement": 0.609}
{"compound": "C=CC[C@]1(C(N)=O)COC(c2ccc(OCCCO)cc2)=N1", "observed_measurement": 0.927}
{"compound": "CC#CC(=O)Oc1ccc(Br)cc1C=CC(=O)OCC", "observed_measurement": 1.24}
{"compound": "NCCCCCNC(=O)[C@H]1C[C@H]2C(=O)N[C@@H](Cc3ccccc3)C(=O)N2[C@H]1c1cccc(OCCO)c1", "observed_measurement": 1.34}
{"compound": "COC(=O)[C@H](Cc1ccccc1)N[C@H](/C=C/C1CC1)[C@@H](O)Cc1ccccc1", "observed_measurement": 0.0419}
{"compound": "CC(=O)NCCCC[C@@H]1NC(=O)[C@H]2C[C@@H](C(=O)O)[C@@H](c3ccc(O)cc3)N2C1=O", "observed_measurement": 1.47}
{"compound": "COc1ccc([Si](C)(C)[C@@H]2[C@@H](CCn3cc(CCO)nn3)O[C@]3(C(=O)N(Cc4cccc(N5C(=O)c6cccc7cccc5c67)c4)c4ccccc43)[C@H]2C)cc1", "observed_measurement": 0.546}
{"compound": "CC(c1ccccc1)C(O)C1C=CC2C(=O)N(c3ccccc3)C(=O)C2N1Nc1ccccc1 (stereo unspecified)", "observed_measurement": 0.215}
{"compound": "COCCOC(=O)N1C(=O)[C@@]2(c3ccccc31)[C@H](C(=O)N1CCc3cc(OC)c(OC)cc3C1)[C@H]1C(=O)O[C@H](c3ccccc3)[C@H](c3ccccc3)N1[C@@H]2c1ccc(O)cc1", "observed_measurement": 0.407}
{"compound": "O=C1OCC=C[C@H]2OC34C=CCN(Cn5nnc6ccccc65)C(=O)[C@H]3N(CCCCCO)C(=O)[C@@H]4[C@@H]12 (stereo partly specified)", "observed_measurement": -0.212}
{"compound": "[N-]=[N+]=Nc1ccccc1C[C@]1(C(=O)NCC(O)CO)N=C(c2ccc(OCCCO)cc2)O[C@H]1c1ccccc1 (stereo partly specified)", "observed_measurement": 0.537}
{"compound": "CN(C)C(=O)[C@]1(Cc2ccccc2)N=C(c2ccc(OCCCO)cc2)O[C@@H]1c1ccccc1N=[N+]=[N-]", "observed_measurement": 1.25}
{"compound": "CCCCC(=C=CC[C@H](O)c1cccc(OCCO)c1)C[C@H](O)c1ccccn1", "observed_measurement": 0.434}
{"compound": "O=C1C2C=CC(C(O)c3cc(C(F)(F)F)cc(C(F)(F)F)c3)N(Nc3ccccc3)C2C(=O)N1c1ccccc1 (stereo unspecified)", "observed_measurement": 1.01}

* * *

# system_under_test: NADPH oxidase 2 (Homo sapiens)
# method_description: compounds shifting NOX2 Amplex Red fluorescence – cell-based, HEK293-NOX2, PMA-stimulated, NOX inhibitor project, primary screen (AID 1159); also: test concentration not given here
# run_parameters: 45 min, higher = more signal, called active from +8 up or from −8 down
Mark NO for z-score values under 0.3, and YES for everything at or above.

{"compound": "O=C(NC1CC1)[C@@H]1c2ccccc2C(=O)N(Cc2cc(F)cc(C(F)(F)F)c2)[C@H]1c1ccc(CO)cc1", "system_under_test": "NADPH oxidase 2 (Homo sapiens)", "class_assignment": "NO"}
{"compound": "CN(C)C(=O)[C@]1(Cc2ccccc2)N=C(c2ccc(OCCCO)cc2)O[C@@H]1c1ccccc1N=[N+]=[N-]", "system_under_test": "NADPH oxidase 2 (Homo sapiens)", "class_assignment": "NO"}
{"compound": "COc1cc2c(cc1O)C(c1cccs1)N(Cc1ccc([N+](=O)[O-])o1)CC2 (stereo not given)", "system_under_test": "NADPH oxidase 2 (Homo sapiens)", "class_assignment": "NO"}
{"compound": "COC(=O)[C@@]1(Cc2ccc(OC)cc2)[C@H]2c3cc(C(=O)N4CCCC4)n(CCSCCO)c3C[C@H]2CN1C(=O)c1ccccc1", "system_under_test": "NADPH oxidase 2 (Homo sapiens)", "class_assignment": "YES"}
{"compound": "O=C1NC(=O)C2C1C=CC(C(O)c1ccc(-c3ccccc3)s1)N2Nc1ccc(Cl)cc1Cl (stereo not given)", "system_under_test": "NADPH oxidase 2 (Homo sapiens)", "class_assignment": "YES"}
{"compound": "COc1ccc([Si](C)(C)[C@H]2[C@H](CC(=O)N3CCC[C@H]3CO)O[C@@]3(C(=O)N(Cc4cccc(N5CCOC5=O)c4)c4ccccc43)[C@@H]2C)cc1", "system_under_test": "NADPH oxidase 2 (Homo sapiens)", "class_assignment": "YES"}
{"compound": "O=C(CS)NCCCCCNC(=O)[C@H]1C[C@H]2C(=O)NCC(=O)N2[C@H]1c1cccc(OCCO)c1", "system_under_test": "NADPH oxidase 2 (Homo sapiens)", "class_assignment": "YES"}
{"compound": "CC(C)CNC(=O)[C@@]1(Cc2ccccc2I)c2ccccc2C(=O)N(Cc2ccccc2C(F)(F)F)[C@H]1c1ccc(CO)cc1", "system_under_test": "NADPH oxidase 2 (Homo sapiens)", "class_assignment": "NO"}
{"compound": "COC(=O)[C@@]1(Cc2ccc(OC)cc2)[C@H]2c3cc(C(=O)N4CCCC4)n(Cc4nc5ccccc5[nH]4)c3C[C@H]2CN1C(=O)c1ccccc1", "system_under_test": "NADPH oxidase 2 (Homo sapiens)", "class_assignment": "NO"}
{"compound": "COCCCNC(=O)[C@@]1(Sc2ccc(C)cc2)CC(=O)N(Cc2ccccc2Cl)[C@@H]1c1ccc(CO)cc1", "system_under_test": "NADPH oxidase 2 (Homo sapiens)", "class_assignment": "NO"}
{"compound": "CC1CC/C=C\\[C@H]2OC34C=CCN(Cn5nnc6ccccc65)C(=O)[C@H]3N(CCCCCO)C(=O)[C@@H]4C2C(=O)O1 (stereo not given in full)", "system_under_test": "NADPH oxidase 2 (Homo sapiens)", "class_assignment": "YES"}
{"compound": "O=C1O[C@H](c2ccccc2)[C@H](c2ccccc2)N2[C@H]1[C@@H](C(=O)NC[C@H](O)c1ccccc1)[C@]1(C(=O)Nc3ccccc31)[C@H]2c1ccc(O)cc1", "system_under_test": "NADPH oxidase 2 (Homo sapiens)", "class_assignment": "NO"}
{"compound": "CCOC(=O)C[C@H]1[C@H](OC(=O)c2ccc(-c3ccccc3)cc2)[C@@H](NC(=O)c2ccccc2)c2cc(OCCCO)ccc2N1C(=O)Cc1ccc(OC)cc1", "system_under_test": "NADPH oxidase 2 (Homo sapiens)", "class_assignment": "YES"}
{"compound": "COC(=O)[C@H](Cc1ccccc1)N[C@H](/C=C/C1CC1)[C@@H](O)Cc1ccccc1", "system_under_test": "NADPH oxidase 2 (Homo sapiens)", "class_assignment": "YES"}
{"compound": "C=CC[C@]1(C(N)=O)COC(c2ccc(OCCCO)cc2)=N1", "system_under_test": "NADPH oxidase 2 (Homo sapiens)", "class_assignment": "NO"}
